Items are presented alongside their recorded TCF/Wnt firefly luciferase reporter signal.
test system: SW480; test: TCF/Wnt firefly luciferase reporter signal relative to plate median (fraction of plate median); higher = higher Wnt reporter signal; details: 5 µM; treatment time 24 h; reporter: 7TFP
QUANTITY KIND: TCF/Wnt firefly luciferase reporter signal

COMPOUND	RESULT
CC(C)[C@@H](C)/C=C/[C@@H](C)[C@H]1CC[C@H]2C3=CC=C4C[C@@H](O)CC[C@]4(C)[C@H]3CC[C@]12C	1
CC(C)Oc1ccc2c(=O)c(-c3ccccc3)coc2c1	0.949
O=C1NC(Cc2ccc(O)cc2)C(=O)N2CCCC12 (stereo not given)	0.887
Cc1cc(C)nc(NS(=O)(=O)c2ccc(N)cc2)n1	1.08
O=C1C=C(O)C(=O)c2ccccc21	0.985
CN(C)C(=O)C(CCN1CCC(O)(c2ccc(Cl)cc2)CC1)(c1ccccc1)c1ccccc1	0.816
CCCCCCCCCCCCCCCCOP(=O)([O-])OCC[N+](C)(C)C	1.04
NC(=O)c1ncn([C@@H]2O[C@H](CO)[C@@H](O)[C@H]2O)c1N	0.927
COc1cc(O)c2c(c1)C(=O)c1cc3c(c(OC)c1C2=O)[C@@H]1CCO[C@@H]1O3	1.02
COc1c(O)cc(O)cc1O	1.03
NC(=O)c1cccc(N)c1	0.853
C[C@@H]1CC2C3C[C@H](F)C4=CC(=O)C=C[C@]4(C)[C@@]3(F)[C@@H](O)C[C@]2(C)[C@@]1(O)C(=O)COC(=O)C(C)(C)C (stereo not given in full)	1.08
N=C(N)NS(=O)(=O)c1ccc(N)cc1	0.986
C[C@]12CC[C@H]3C(=CCc4cc(O)ccc43)[C@@H]1CCC2=O	0.98
COC(=O)[C@H]1[C@H]2C[C@H]3c4[nH]c5cc(OC)ccc5c4CCN3C[C@H]2C[C@@H](OC(=O)c2cc(OC)c(OC)c(OC)c2)[C@@H]1OC	0.957
NCCC(=O)N[C@@H](Cc1c[nH]cn1)C(=O)O	1.17
COc1cc2nc(N3CCN(C(=O)c4ccco4)CC3)nc(N)c2cc1OC	1.09
C=C1CC[C@@H]2[C@](C)(CO)[C@H](O)CC[C@@]2(C)[C@@H]1C/C=C1/C(=O)OC[C@H]1O	0.987
Cc1ccccc1OCC(O)CO (stereo not given)	1.04
NC(=O)N/N=C/c1ccc([N+](=O)[O-])o1	1.08
COc1ccc(-c2cc(=O)c3c(O)c(OC)c(OC)c(OC)c3o2)cc1OC	0.967
Nc1c2ccccc2nc2ccccc12	1.01
CC(=O)O[C@@H]1CC2C(C)(C)[C@H](O)C[C@H](O)[C@@]2(C)C2CC[C@]3(C)C(=CC(=O)O[C@@H]3c3ccoc3)[C@]21C (stereo not given in full)	0.948
CC(=O)N1CCN(c2ccc(OCC3COC(Cn4ccnc4)(c4ccc(Cl)cc4Cl)O3)cc2)CC1 (stereo not given)	1.01
O=C(C1CCCCC1)N1CC(=O)N2CCc3ccccc3C2C1 (stereo not given)	0.918
CC1(C)S[C@@H]2[C@H](NC(=O)Cc3ccccc3)C(=O)N2[C@H]1C(=O)O	0.949
CC(=O)CC(=O)CCC(=O)O	0.939
C[N+](C)(C)C[C@H](O)CC(=O)[O-]	0.961
CN(C)CCOC(=O)C(c1ccccc1)C1(O)CCCC1 (stereo not given)	1.05
Cc1cc(C)cc(OCC2CNC(=O)O2)c1 (stereo not given)	0.957
CC(C)CCCCCCCCC1CC(=O)NC(CCC(=O)O)C(=O)NC(CC(C)C)C(=O)NC(CC(C)C)C(=O)NC(C(C)C)C(=O)NC(CC(=O)O)C(=O)NC(CC(C)C)C(=O)NC(CC(C)C)C(=O)O1 (stereo not given)	1.01
O=C(CNC(=O)c1ccc(Cl)cc1)NO	1.13
CC[C@]1(O)C[C@@H]2CN(CCc3c([nH]c4ccccc34)[C@@](C(=O)OC)(c3cc4c(cc3OC)N(C)[C@H]3[C@@](O)(C(=O)OC)[C@H](OC(C)=O)[C@]5(CC)C=CCN6CC[C@]43[C@@H]65)C2)C1	0.867
CC(C)CC(NC(=O)OCC1c2ccccc2-c2ccccc21)C(=O)O (stereo in doubt)	1.02
Cc1c(OCC(F)(F)F)ccnc1C[S+]([O-])c1nc2ccccc2[nH]1 (stereo not given)	0.959
Cc1cc(O)c(C=O)c2c1C(=O)Oc1c(COC(=O)/C=C/C(=O)O)c(O)c(C(=O)O)c(C)c1O2	0.939
Nc1nccs1	0.986
O=c1cc(-c2ccccc2)oc2c(O)c(O)ccc12	1.11
OCCN(CCO)c1nc(N2CCCCC2)c2nc(N(CCO)CCO)nc(N3CCCCC3)c2n1	1.03
COC(=O)C1=CO[C@@H](O[C@@H]2O[C@H](CO)[C@@H](O)[C@H](O)[C@H]2O)[C@H]2[C@@H]1C(=O)C[C@@H]2C	1.06
